procedure.summary: protein stability index of a GFP-peptide fusion (yeast GPS) (PSI 1-4); higher = more stable; sorted into four equal gates, so the index is relative within each strain
applied.conditions: ubr1∆
Classify as follows. Reported protein stability index greater than or equal to 3: yes (1). Reported protein stability index below: no (0).

Ask: Please tell me: is the sequence LEEVSLKWIDTASKFGK [RPL3] at or over 3 in terms of protein stability index?
Reply: no (0)

Ask: // same read-out, input: SDLKGKLSSAENANADL [YIL149C/MLP2]
Reply: yes (1)

Ask: Same read-out for QESSSTLSTHSTTTSVN [SIN4] ?
Reply: yes (1)

Ask: Query KKMMNTSDSESTLYKYL [SWI3] next
Reply: no (0)

Ask: Then what about the sequence GGKAGSAAKASQSRSAK [HTA1] ?
Reply: yes (1)

Ask: Further, for DNDGFSFLMRQFTRFFL [ECM29] ?
Reply: no (0)

Ask: Quick one: TIFSPEGRLYQVEYALE [PRE9]
Reply: yes (1)
